- tested.system: T1, DLL3 on SHP-77 cells (human, UniProt Q9NYJ7 27-618)
- T1 construct: SHP-77 cells are human-derived, non-engineered SCLC cells
- T1 sequence: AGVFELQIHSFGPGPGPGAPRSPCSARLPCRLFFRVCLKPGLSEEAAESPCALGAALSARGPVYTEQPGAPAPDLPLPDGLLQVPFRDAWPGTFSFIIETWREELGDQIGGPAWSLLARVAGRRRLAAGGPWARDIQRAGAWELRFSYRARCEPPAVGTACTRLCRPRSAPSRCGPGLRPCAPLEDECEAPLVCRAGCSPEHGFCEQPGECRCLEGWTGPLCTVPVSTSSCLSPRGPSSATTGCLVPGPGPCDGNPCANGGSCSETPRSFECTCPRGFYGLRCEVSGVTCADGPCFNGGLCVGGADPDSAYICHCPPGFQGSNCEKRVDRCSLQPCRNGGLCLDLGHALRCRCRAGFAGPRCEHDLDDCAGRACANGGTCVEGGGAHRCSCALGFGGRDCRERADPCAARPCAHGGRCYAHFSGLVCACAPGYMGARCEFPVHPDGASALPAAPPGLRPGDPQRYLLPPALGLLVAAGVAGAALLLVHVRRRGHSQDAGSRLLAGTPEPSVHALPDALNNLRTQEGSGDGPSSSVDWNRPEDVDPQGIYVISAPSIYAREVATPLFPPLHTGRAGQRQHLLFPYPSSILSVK
- experiment.summary: [177Lu]Lu-labelled peptide on SHP-77 cells, 1 h 37 C, gamma counter; C = %>50
*1 amine or outer side, *2 acyl side, *3 side chain or, on linkers, in order; H or OH if unused. Bridges are numbered along the chain shown (N, C = ends). [ ]: non-standard residue; d: D form. The star is where a group is joined. Ala(piperidin-4-yl) = O=C([C@H](CC1CCN([*:3])CC1)N[*:1])[*:2]; DOTA = O=C(O)CN1CCN(CC(=O)O)CCN(CC(=O)*)CCN(CC(=O)O)CC1; 2Nal = N[C@@H](Cc1ccc2ccccc2c1)C(=O)O; NMetBuAla = CN[C@@H](CC(C)(C)C)C(=O)O; αMeP = C[C@@]1(C(=O)O)CCCN1; CH2 = C([*:1])[*:2]
Recorded % Binding, one value per entry.
attribute.measured: % Binding

{"binder": "Ac-WT[NMetBuAla]C[Ala(piperidin-4-yl)]N[2Nal]K(DOTA)DCW[αMeP]-NH2 (bridge 4-10; not fully specified (bridges)) [Cpd No. 236]", "attribute.measured": "% Binding", "value.measured": "> 50%"}
{"binder": "Ac-WT[NMetBuAla]C[Ala(piperidin-4-yl)]N[2Nal]K(DOTA)DCWP-OH (linker 4-10 via CH2) [Cpd No. 442]", "attribute.measured": "% Binding", "value.measured": "> 50%"}
